This collection of values is drawn from ChEMBL document CHEMBL2016527.

experiment: Ratio of drug uptake in brain to plasma of Sprague-Dawley rat at 1 mg/kg, iv measured after 5 mins; format: ADME, organism-based; design: dose 1 mg/kg, route intravenous; conditions: read-out: BPR
quantity_kind: Kp at 5 min

(A) COc1cc(N2CCN(C(C)=O)CC2)ccc1-c1nc2snc(C3CCCCC3)c2c(=O)[nH]1
(B) COc1cc(N)ccc1-c1nc2snc(C3CCCCC3)c2c(=O)[nH]1
Asked: Which is greater in Kp at 5 min, the first item A or the second item B ? Please respond with the label that marks your chosen entry.
Given back: B
(B: 3.39, A: 2.03)

---

assay: Metabolic stability in rat liver microsomes assessed as compound remaining after 60 mins; format: ADME, Microsome; conditions: read-out: Stability
quantity_kind: remaining at 1 h (%)

COc1cc(N2CCN(C(C)=O)CC2)ccc1-c1nc2snc(C3CCCCC3)c2c(=O)[nH]1    67
COc1cc(N)ccc1-c1nc2snc(C3CCCCC3)c2c(=O)[nH]1    58

---

assay: AUC in Sprague-Dawley rat at 10 mg/kg, po; assay type: ADME, organism-based; design: dose 10 mg/kg, route oral; conditions: plasma
quantity_kind: AUC (ng·h/mL)

(A) COc1cc(N)ccc1-c1nc2snc(C3CCCCC3)c2c(=O)[nH]1
(B) COc1cc(N2CCN(C(C)=O)CC2)ccc1-c1nc2snc(C3CCCCC3)c2c(=O)[nH]1
Asked: Among A and B , which shows a numerically higher AUC result? Identify your pick by its label.
Given back: B
(B: 2880 ng·h/mL, A: 75 ng·h/mL)

---

target: High affinity 3',5'-cyclic-AMP phosphodiesterase 7A (Homo sapiens, UniProt Q13946); assay: Displacement of [3H]-cAMP from human recombinant PDE7A
Sequence (Q13946 whole entry): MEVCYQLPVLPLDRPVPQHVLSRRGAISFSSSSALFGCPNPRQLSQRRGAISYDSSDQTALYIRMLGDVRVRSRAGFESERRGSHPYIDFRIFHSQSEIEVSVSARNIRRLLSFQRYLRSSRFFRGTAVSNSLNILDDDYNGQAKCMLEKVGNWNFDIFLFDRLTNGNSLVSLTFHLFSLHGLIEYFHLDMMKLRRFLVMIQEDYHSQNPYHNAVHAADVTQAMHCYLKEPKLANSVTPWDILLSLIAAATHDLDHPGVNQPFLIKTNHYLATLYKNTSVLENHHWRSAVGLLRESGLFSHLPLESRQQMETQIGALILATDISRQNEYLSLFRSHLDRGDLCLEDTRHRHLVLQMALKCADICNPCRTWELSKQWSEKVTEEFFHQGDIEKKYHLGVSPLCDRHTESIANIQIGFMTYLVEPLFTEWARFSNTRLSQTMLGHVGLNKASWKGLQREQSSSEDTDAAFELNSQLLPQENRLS
pIC50: −log10 of the molar value.
quantity_kind: pIC50

(A) CNC(=O)[C@H]1C[C@@H]1c1ccc(-c2nc3snc(C4CCCCC4)c3c(=O)[nH]2)c(OC)c1 (stereo in doubt)
(B) COc1cc(N2CCNCC2)ccc1-c1nc2snc(C3CCCCC3)c2c(=O)[nH]1
(C) COc1cc(N)ccc1-c1nc2snc(C3CCCCC3)c2c(=O)[nH]1
Asked: Sort the entries above by pIC50, smallest first. Give me the labels in the order the question wants.
Given back: A, C, B
(A: 7.46, C: 7.85, B: 8.05)

(a) COc1cc(-c2cn[nH]c2)ccc1-c1nc2snc(C3CCCCC3)c2c(=O)[nH]1
(b) COc1cc(N2CCCNCC2)ccc1-c1nc2snc(C3CCCCC3)c2c(=O)[nH]1
Asked: Smaller pIC50 value, a vs b ? Reply with the label of the item you choose.
Given back: a
(a: 7.60, b: 8.40)

---

biological target: High affinity 3',5'-cyclic-AMP phosphodiesterase 7A (Homo sapiens, UniProt Q13946); assay: Displacement of [3H]-cAMP from human recombinant PDE7A
pIC50: −log10 of the molar value.
quantity_kind: pIC50

Here's what some known entries look like.
CCOc1cc(N2CCN(C)CC2)ccc1-c1nc2snc(C3CCCCC3)c2c(=O)[nH]1    7.06
COc1cc(N2CCC(O)CC2)ccc1-c1nc2snc(C3CCCCC3)c2c(=O)[nH]1    7.96
CNC(=O)[C@@H]1C[C@H]1c1ccc(-c2nc3snc(C4CCCCC4)c3c(=O)[nH]2)c(OC)c1 (stereo in doubt)    7.42
CNC(=O)/C=C/c1ccc(-c2nc3snc(C4CCCCC4)c3c(=O)[nH]2)c(OC)c1    7.33
NC1CCN(c2ccc(-c3nc4snc(C5CCCCC5)c4c(=O)[nH]3)c(F)c2)CC1    7.00

(I) COc1cc(N2CC(O)C2)ccc1-c1nc2snc(C3CCCCC3)c2c(=O)[nH]1
(II) COc1cc(N)ccc1-c1nc2snc(-c3ccc(F)cc3F)c2c(=O)[nH]1
(III) COc1cc(N)ccc1-c1nc2c(c(C3CCCCC3)nn2C)c(=O)[nH]1
(IV) COc1cc(N2CCC(F)(F)CC2)ccc1-c1nc2snc(C3CCCCC3)c2c(=O)[nH]1
(V) COc1cc(N2CCCC(O)CC2)ccc1-c1nc2snc(C3CCCCC3)c2c(=O)[nH]1 (centres undefined)
Asked: Arrange items by their pIC50 values in increasing order. Put the labels in the requested order and write them down.
Given back: IV, II, I, V, III
(IV: 6.97, II: 7.34, I: 7.74, V: 8.15, III: 8.89)
